System: clinical S. aureus isolate LMY47
experimentalDetails: MIC and MBC testing, broth microdilution
Assay type: cell-based, Staphylococcus aureus
testConditions: Staphylococcus aureus; LMY47; read-out: MBC
Measured MBC of individual entries
property: MBC (µg/mL)

• [H]/N=C(\N)NN=C1CCCc2cc(OCCCC)ccc21 = 2
• [H]/N=C(\N)NN=C1CCCc2cc(OCc3ccccc3Br)ccc21 = 4
• [H]/N=C(\N)NN=C1CCCc2cc(OCCCCCC)ccc21 = 8
• [H]/N=C(\N)NN=C1CCCc2cc(OCc3ccc(Br)cc3)ccc21 = 4
• [H]/N=C(\N)NN=C1CCCc2cc(OCc3ccc(F)cc3)ccc21 = 8
• [H]/N=C(\N)NN=C1CCCc2cc(OCc3ccc(F)cc3Cl)ccc21 = 4
• [H]/N=C(\N)NN=C1CCCc2cc(OCC=C(C)C)ccc21 = 8
• [H]/N=C(\N)NN=C1CCCc2cc(OCc3cccc(-c4ccccc4)c3)ccc21 = 8
• [H]/N=C(\N)NN=C1CCCc2cc(OCCCCCCCC)ccc21 = 4
